- assay.system: CDK1/Cyclin A (Homo sapiens, UniProt P06493)
- Sequence (P06493 whole entry): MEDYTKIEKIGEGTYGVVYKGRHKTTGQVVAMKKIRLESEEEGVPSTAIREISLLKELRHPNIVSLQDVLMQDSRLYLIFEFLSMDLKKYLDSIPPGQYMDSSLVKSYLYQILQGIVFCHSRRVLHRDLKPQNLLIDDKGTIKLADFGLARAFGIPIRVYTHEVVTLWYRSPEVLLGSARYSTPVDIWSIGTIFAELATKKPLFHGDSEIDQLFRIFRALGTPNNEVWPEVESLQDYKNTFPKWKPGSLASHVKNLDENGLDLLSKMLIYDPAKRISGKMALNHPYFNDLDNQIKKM
- Sequence (P20248 whole entry, further chain): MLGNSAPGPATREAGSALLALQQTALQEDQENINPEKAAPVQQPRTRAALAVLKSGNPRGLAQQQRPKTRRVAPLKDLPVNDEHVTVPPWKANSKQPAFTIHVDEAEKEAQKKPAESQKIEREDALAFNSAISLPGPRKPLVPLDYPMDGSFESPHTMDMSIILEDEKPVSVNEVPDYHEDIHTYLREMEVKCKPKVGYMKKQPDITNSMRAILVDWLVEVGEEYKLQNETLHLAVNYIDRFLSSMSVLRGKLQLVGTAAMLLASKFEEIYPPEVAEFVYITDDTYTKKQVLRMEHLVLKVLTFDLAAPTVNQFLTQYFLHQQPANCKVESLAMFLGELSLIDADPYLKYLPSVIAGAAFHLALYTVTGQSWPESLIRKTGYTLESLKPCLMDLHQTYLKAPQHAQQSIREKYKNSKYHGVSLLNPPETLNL
- experiment.summary: Inhibition of CDK1/cyclA2 (unknown origin) by ADP-Glo assay
- Type: protein-complex assay
pIC50: −log10 of the molar value.

{"columns": ["smiles.data", "assay.system", "pIC50"],
 "data": [
  ["CC(C)Oc1cc(F)ccc1-c1ccnc(NC(=O)Nc2cccc(C(=O)N3CCN(C)CC3)c2)c1", "CDK1/Cyclin A (Homo sapiens, UniProt P06493)", 5.41]
]}

====

- assay.system: CDK4/Cyclin D3 (Homo sapiens)
- Sequence (P11802 whole entry): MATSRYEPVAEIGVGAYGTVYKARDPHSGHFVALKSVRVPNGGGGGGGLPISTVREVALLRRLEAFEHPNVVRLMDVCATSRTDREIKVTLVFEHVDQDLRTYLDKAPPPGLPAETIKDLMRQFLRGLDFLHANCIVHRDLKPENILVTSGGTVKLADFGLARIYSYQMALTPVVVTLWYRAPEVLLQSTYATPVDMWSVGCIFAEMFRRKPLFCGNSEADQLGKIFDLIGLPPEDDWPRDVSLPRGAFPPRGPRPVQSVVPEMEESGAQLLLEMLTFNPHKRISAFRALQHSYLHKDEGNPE
- Sequence (P30281 whole entry, further chain): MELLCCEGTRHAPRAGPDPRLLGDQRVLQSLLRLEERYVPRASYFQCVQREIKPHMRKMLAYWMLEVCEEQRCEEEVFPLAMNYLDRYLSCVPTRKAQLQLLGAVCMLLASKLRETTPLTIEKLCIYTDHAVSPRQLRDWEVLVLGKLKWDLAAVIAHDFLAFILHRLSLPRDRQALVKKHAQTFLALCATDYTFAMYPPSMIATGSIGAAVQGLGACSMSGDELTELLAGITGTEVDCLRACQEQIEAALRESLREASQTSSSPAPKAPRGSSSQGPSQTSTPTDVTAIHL
- experiment.summary: Inhibition of CDK4/cycD3 (unknown origin) by ADP-Glo assay

{"columns": ["smiles.data", "assay.system", "IC50 / nM"],
 "data": [
  ["CC(C)Oc1cc(F)ccc1-c1ccnc(NC(=O)Nc2cccc(C(=O)N3CCN(C)CC3)c2)c1", "CDK4/Cyclin D3 (Homo sapiens)", 1820]
]}

====

- experiment.summary: Cmax in Sprague-Dawley rat at 30 mg/kg, po measured after 24 hrs by LC-MS/MS analysis
- Type: ADME, organism-based
- recorded.conditions: in vivo
assay.metric: Cmax (ng/mL)

{"columns": ["smiles.data", "data.value"],
 "data": [
  ["CC(C)Oc1cc(F)ccc1-c1ccnc(NC(=O)Nc2cccc(C(=O)N3CCN(C)CC3)c2)c1", 302]
]}

====

- experiment.summary: AUC (0 to t) in Sprague-Dawley rat at 30 mg/kg, po as submicron emulsion measured after 24 hrs by LC-MS/MS analysis
- Format: ADME, organism-based
- recorded.conditions: in vivo

{"columns": ["smiles.data", "AUC(0-t) at 24 h (ng·h/mL)"],
 "data": [
  ["CC(C)Oc1cc(F)ccc1-c1ccnc(NC(=O)Nc2cccc(C(=O)N3CCN(C)CC3)c2)c1", 1610]
]}

====

- experiment.summary: MRT (infinity) in Sprague-Dawley rat at 30 mg/kg, po measured after 24 hrs by LC-MS/MS analysis
- Type: ADME, organism-based
- recorded.conditions: in vivo

{"columns": ["smiles.data", "MRT inf"],
 "data": [
  ["CC(C)Oc1cc(F)ccc1-c1ccnc(NC(=O)Nc2cccc(C(=O)N3CCN(C)CC3)c2)c1", "1.45 h"]
]}

====

- assay.system: CDK2/Cyclin A2 (Homo sapiens)
- experiment.summary: Inhibition of CDK2/cyclA2 (unknown origin) by ADP-Glo assay
- Format: protein-complex assay

{"columns": ["smiles.data", "IC50 [µM]"],
 "data": [
  ["CC(C)Oc1cc(F)ccc1-c1ccnc(NC(=O)Nc2cccc(C(=O)N3CCN(C)CC3)c2)c1", 1.18]
]}

====

- experiment.summary: MRT (infinity) in Sprague-Dawley rat at 30 mg/kg, po as submicron emulsion measured after 24 hrs by LC-MS/MS analysis
- Assay type: ADME, organism-based
- recorded.conditions: in vivo

{"columns": ["smiles.data", "MRT inf, h"],
 "data": [
  ["CC(C)Oc1cc(F)ccc1-c1ccnc(NC(=O)Nc2cccc(C(=O)N3CCN(C)CC3)c2)c1", 2.08]
]}

====

- assay.system: CYP2C19 (Homo sapiens, UniProt P33261)
- Sequence (P33261 whole entry): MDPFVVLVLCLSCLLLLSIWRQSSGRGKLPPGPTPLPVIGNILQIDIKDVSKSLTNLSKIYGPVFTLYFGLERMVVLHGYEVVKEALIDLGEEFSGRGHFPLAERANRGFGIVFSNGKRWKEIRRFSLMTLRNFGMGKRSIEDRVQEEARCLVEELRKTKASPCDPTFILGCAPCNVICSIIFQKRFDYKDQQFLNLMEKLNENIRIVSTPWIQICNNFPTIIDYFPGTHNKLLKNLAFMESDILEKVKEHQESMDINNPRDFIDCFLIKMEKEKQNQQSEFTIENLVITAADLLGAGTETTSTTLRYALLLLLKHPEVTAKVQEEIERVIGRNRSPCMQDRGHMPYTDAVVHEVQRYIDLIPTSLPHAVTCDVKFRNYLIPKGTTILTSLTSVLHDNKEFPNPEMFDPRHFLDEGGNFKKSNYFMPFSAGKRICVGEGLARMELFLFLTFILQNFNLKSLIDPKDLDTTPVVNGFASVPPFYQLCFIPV
- experiment.summary: Inhibition of CYP2C19 in human liver microsome at 10 uM pre-incubated with compound for 10 mins in presence of NADPH-regenerating system by LC-MS/MS analysis relative to control
- Type: ADME
- recorded.conditions: liver microsomes
This section presents molecules with their documented inhibition at 10 µM values.

{"columns": ["molecule", "inhibition at 10 µM, %"],
 "data": [
  ["CC(C)Oc1cc(F)ccc1-c1ccnc(NC(=O)Nc2cccc(C(=O)N3CCN(C)CC3)c2)c1", 69.6],
  ["CCC1(c2ccccc2)NC(=O)N(Cc2ccccc2)C1=O (single isomer, unassigned; (+))", 88.3]
]}
